Recorded aP2 mRNA, one value per entry.
Test system: aP2
Assay: aP2 mRNA expression in adipocytes (real-time PCR)
Type: cell-based, human
Settings: differentiating adipocytes transfected with oligomeric compound; Table 75
In the oligonucleotide strings, read from the 5' end, every base follows the letter of its sugar. An asterisk marks phosphorothioate; unmarked linkages are phosphodiester. Other units and linkages are bracketed, terminal groups are in braces. A string of capitals states the bases alone. e = 2'-O-(2-methoxyethyl) (MOE); [5mC] = 5-methylcytosine

Observe how each entry below is paired with its result.
q: GET aP2 mRNA | system: aP2 | item: 340343 (antisense ACAGGAGUCUGAGCAUUUGA; all 2'-MOE, all phosphorothioate, methylation of C and T or U not given here) [compound 340343]
a: 60 percentage of untreated control (UTC)

q: GET aP2 mRNA | system: aP2 | item: 346695 (CACUGGUACAAGGGUUGGGAGA; all 2'-MOE, all phosphorothioate, methylation of C and T or U not given here) [compound 346695]
a: 72 percentage of untreated control (UTC)

q: GET aP2 mRNA | system: aP2 | item: 344338 (antisense AUGCCCUUUUAACAUUGCACUG; all 2'-MOE, all phosphorothioate, methylation of C and T or U not given here) [compound 344338]
a: 86 percentage of untreated control (UTC)

q: GET aP2 mRNA | system: aP2 | item: 327886 (antisense e[5mC]*eG*e[5mC]*eG*eT*eA*e[5mC]*e[5mC]*eA*eA*eA*eA*eG*eT*eA*eA*eT*eA*eA*eT*eG) [compound 327886]
a: 19 percentage of untreated control (UTC)

q: GET aP2 mRNA | system: aP2 | item: 327906 (antisense eT*e[5mC]*eA*eT*eA*eG*e[5mC]*e[5mC]*e[5mC]*eT*eG*eT*eA*e[5mC]*eA*eA*eT*eG*e[5mC]*eT*eG*e[5mC]*eT) [compound 327906]
a: 46 percentage of untreated control (UTC)

Next:
q: GET aP2 mRNA | system: aP2 | item: 327896 (antisense eA*e[5mC]*eA*eG*eT*eT*e[5mC]*eT*eT*e[5mC]*eA*eA*e[5mC]*eT*eG*eG*e[5mC]*eA*eG*e[5mC]*eT*eT) [compound 327896]
a: 43 percentage of untreated control (UTC)

q: GET aP2 mRNA | system: aP2 | item: 327887 (antisense eG*e[5mC]*eG*eA*e[5mC]*e[5mC]*eA*eT*eG*eG*e[5mC]*eT*eG*eT*eA*eG*eA*e[5mC]*eT*eG*eT*eT*eA) [compound 327887]
a: 60 percentage of untreated control (UTC)

q: GET aP2 mRNA | system: aP2 | item: 328096 (antisense e[5mC]*e[5mC]*eT*e[5mC]*eT*e[5mC]*eA*eA*eA*eG*eA*eT*eT*eT*e[5mC]*e[5mC]*eT*eG*eT*e[5mC]*eA) [compound 328096]
a: 71 percentage of untreated control (UTC)

q: GET aP2 mRNA | system: aP2 | item: 328115 (antisense eA*eG*eA*eA*eG*eG*eT*eG*eG*eG*eG*eA*eG*e[5mC]*eA*eG*e[5mC]*eG*eT*e[5mC]*eA) [compound 328115]
a: 74 percentage of untreated control (UTC)

q: GET aP2 mRNA | system: aP2 | item: 328111 (antisense eT*e[5mC]*e[5mC]*eG*eA*eG*eT*e[5mC]*eG*eG*eA*eG*eG*eA*eG*eG*eA*eG*eG*eA*eA) [compound 328111]
a: 79 percentage of untreated control (UTC)

q: GET aP2 mRNA | system: aP2 | item: 344268 (antisense ACACAAAUUCGGUUCUACAGGG; all 2'-MOE, all phosphorothioate, methylation of C and T or U not given here) [compound 344268]
a: 46 percentage of untreated control (UTC)

q: GET aP2 mRNA | system: aP2 | item: 327929 (antisense eG*eA*eA*e[5mC]*eA*eG*eA*eT*eA*eG*eT*e[5mC]*eT*eA*eA*eA*e[5mC]*eA*e[5mC]*eT*eG*eG*eG) [compound 327929]
a: 62 percentage of untreated control (UTC)
